B1: HDV Ribozyme (parent)
chain: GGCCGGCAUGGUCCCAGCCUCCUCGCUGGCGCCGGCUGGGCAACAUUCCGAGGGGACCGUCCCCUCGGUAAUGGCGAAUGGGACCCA

Variants of: B1
Assay overview: self-cleavage, relative activity (ratio to wild type); higher = more cleavage; co-transcriptional
Here, each record is paired with measured self-cleavage data.
Answer with a bare number; do not write a unit.

G1U G35U : 0.288
A43C G55C : 0.312

# self-cleavage lookup, item C32A A70U 0.0852

Next variant up: G31U C62A 0.602
